Just for reference, patent US6677355B1 is where these values come from.

Hi! I'm sharing some pIC50 results obtained with MMP-2FL (gelatinase A full-length enzyme) (Homo sapiens, UniProt P08253).
Sequence (P08253 110-660, species assumed): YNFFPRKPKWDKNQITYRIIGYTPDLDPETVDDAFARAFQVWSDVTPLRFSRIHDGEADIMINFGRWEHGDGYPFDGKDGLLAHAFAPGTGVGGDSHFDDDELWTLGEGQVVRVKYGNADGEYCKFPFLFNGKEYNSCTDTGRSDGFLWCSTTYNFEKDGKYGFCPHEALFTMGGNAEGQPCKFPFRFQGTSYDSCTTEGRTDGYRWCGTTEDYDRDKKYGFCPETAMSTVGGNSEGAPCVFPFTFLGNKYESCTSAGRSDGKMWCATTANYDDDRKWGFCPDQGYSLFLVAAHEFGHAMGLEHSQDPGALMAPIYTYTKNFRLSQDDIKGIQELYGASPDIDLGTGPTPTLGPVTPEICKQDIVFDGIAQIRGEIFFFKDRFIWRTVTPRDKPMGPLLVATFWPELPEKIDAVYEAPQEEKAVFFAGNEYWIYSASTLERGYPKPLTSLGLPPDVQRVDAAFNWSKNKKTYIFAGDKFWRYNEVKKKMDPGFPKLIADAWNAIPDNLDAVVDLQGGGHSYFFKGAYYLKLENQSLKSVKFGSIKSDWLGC
Give bare numbers, as −log10 of the molar value.

The examples below pair each entry with its known result.
| input-smiles | pIC50 |
| --- | --- |
| O=C(NO)C1(NS(=O)(=O)c2ccc3c(c2)oc2ccccc23)CCOCC1 | 8.28 |
| CC(C)(NS(=O)(=O)c1ccc2c(c1)oc1ccccc12)C(=O)O | 7.70 |
| CC(C)(NS(=O)(=O)c1ccc2oc3cc(Cl)ccc3c2c1)C(=O)NO | 6.90 |

Next:
Please fill in: pIC50 reported for CC(C)(NS(=O)(=O)c1ccc2c(c1)oc1ccccc12)C(=O)NO = 8.32

---

target-or-test-system: MMP-7FL (matrilysin full-length enzyme) (Homo sapiens)
Sequence (P09237 95-267): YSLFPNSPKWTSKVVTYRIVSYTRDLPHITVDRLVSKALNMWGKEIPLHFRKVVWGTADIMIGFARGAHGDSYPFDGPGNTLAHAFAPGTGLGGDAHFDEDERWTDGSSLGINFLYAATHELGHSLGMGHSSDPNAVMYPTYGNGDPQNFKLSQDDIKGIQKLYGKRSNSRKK
Record form. Attribute: pIC50. Fill in for each entry.
Answers are plain numbers, as −log10 of the molar value.

Some solved cases for reference:
| input-smiles | pIC50 |
| --- | --- |
| O=C(NO)C1(NS(=O)(=O)c2ccc3oc4cc(Br)ccc4c3c2)CCCC1 | 6.46 |
| O=C(NO)C1(NS(=O)(=O)c2ccc3c(c2)oc2ccccc23)CCOCC1 | 5.52 |

With those in mind, consider the next molecule.
The molecule O=C(NO)C1(NS(=O)(=O)c2ccc3c(c2)oc2ccccc23)CCCCC1 showed pIC50 equal to 5.39

---

Consider the following compounds; for each one, report its melting point.

Solved entries (count: 4):
| input-smiles | observed-result |
| --- | --- |
| O=C(NO)C1(NS(=O)(=O)c2ccc3c(c2)oc2ccccc23)CCOCC1 | 160 to 162 °C |
| O=C(NO)C1(NS(=O)(=O)c2ccc3c(c2)oc2ccccc23)CCCCC1 | 184 to 186 °C |
| CC(C)(NS(=O)(=O)c1ccc2c(c1)oc1ccccc12)C(=O)NO | 168 to 169 °C |
| O=C(O)C1(NS(=O)(=O)c2ccc3c(c2)oc2ccccc23)CCCCC1 | 239 to 243 °C |

Now for the compound whose melting point we want.
melting point reported for this compound CC(C)(NS(=O)(=O)c1ccc2c(c1)oc1ccccc12)C(=O)O : 220 to 224 °C

---

target-or-test-system: MMP-3CD (stromelysin-1 catalytic domain) (Homo sapiens)
Sequence (P08254 100-272 limits assumed): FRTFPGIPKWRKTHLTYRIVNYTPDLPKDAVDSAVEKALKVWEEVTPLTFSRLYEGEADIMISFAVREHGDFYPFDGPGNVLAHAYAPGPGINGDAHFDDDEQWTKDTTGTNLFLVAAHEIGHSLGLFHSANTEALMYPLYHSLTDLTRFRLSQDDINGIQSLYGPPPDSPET
measured-metric: IC50 (nM)
Give bare numbers, in nM.

| input-smiles | observed-result |
| --- | --- |
| CC(C)(NS(=O)(=O)c1ccc2c(c1)oc1ccccc12)C(=O)O | 8.35 |

// IC50 lookup, compound = O=C(O)C1(NS(=O)(=O)c2ccc3c(c2)oc2ccccc23)CCCCC1 , result: 9.25

---

target-or-test-system: MMP-13CD (collagenase-3 catalytic domain) (Homo sapiens)
Provide the reported IC50 of each item.
Give bare numbers, in µM.

| molecule | measured-metric | observed-result |
| --- | --- | --- |
| O=C(NO)C1(NS(=O)(=O)c2ccc3c(c2)oc2ccccc23)CCOCC1 [Example 31] | IC50 | 0.048 |
| CC(C)(NS(=O)(=O)c1ccc2oc3cc(Cl)ccc3c2c1)C(=O)NO [Example 33] | IC50 | 0.11 |

Next up:
Field IC50 (entry O=C(NO)C1(NS(=O)(=O)c2ccc3c(c2)oc2ccccc23)CCCCC1 [Example 28] ) reads 0.049
